Assay: Human HepG2 cell viability assay in 384 well format
Format: toxicity, cell-based
Parameters: dose 125 nL, time 70.5 hour; concentration not given beside the values
Settings: HepG2 cells, read-out: Inhibition
As shown below, each of these compounds has a reported cytotoxicity at 70.5 h value.

- compound: "Cc1c(C(=O)N2CCOCC2)n(C)c2ccc(Cl)cc12"
  cytotoxicity at 70.5 h (%): -10.5
- compound: "Cn1ncc2c(NC3CN4CCC3CC4)nc(-c3ccncc3)nc21 (stereo unspecified)"
  cytotoxicity at 70.5 h (%): 12
- compound: "CN(Cc1cnc(N)nc1)C(=O)c1coc(COc2cccc(F)c2)n1"
  cytotoxicity at 70.5 h (%): 0.199
- compound: "Cc1cc(C(=O)N(C)C2CCS(=O)(=O)C2)c2ccc(F)cc2n1 (stereo unspecified)"
  cytotoxicity at 70.5 h (%): 10.8
- compound: "Cc1cc(CN2CC[C@H]3C[C@@H](C)O[C@@H]3C2)no1"
  cytotoxicity at 70.5 h (%): -7.88
- compound: "COc1cccc(CN(C)Cc2nc3c(cnn3C)c(=O)[nH]2)c1OC"
  cytotoxicity at 70.5 h (%): -5.01

---

# cytotoxicity at 70.5 h annotations
Assay: Human HepG2 cell viability assay in 384 well format
Format: toxicity, cell-based
Parameters: dose 125 nL, time 70.5 hour; concentration not given beside the values
Details: HepG2 cells, read-out: Inhibition

- compound: "OCCN1CCOC2(CCCN(c3ncccn3)C2)C1 (stereo unspecified)"
  cytotoxicity at 70.5 h: "-2.47%"
- compound: "CC(C)C(=O)N1CCCC1c1nc(N(C)C)ncc1-c1ccc(Cl)cc1 (stereo unspecified)"
  cytotoxicity at 70.5 h: "6.28%"
- compound: "Cc1ccsc1-c1nnc(SCC(=O)O)n1C(C)c1ccccc1 (stereo unspecified)"
  cytotoxicity at 70.5 h: "-5.54%"
- compound: "N#Cc1c(N)nc2c(c1-c1c[nH]nc1C1CCCCC1)CC(N)CC2 (stereo unspecified)"
  cytotoxicity at 70.5 h: "22.4%"
- compound: "CC(=O)N[C@H]1CCN2C(=O)[C@@H](Cc3c[nH]c4ccccc34)NC(=O)[C@H]12"
  cytotoxicity at 70.5 h: "-13.3%"
- compound: "O=C(c1cccnc1-n1cccn1)N1CCN(CC2CC2)CC1"
  cytotoxicity at 70.5 h: "-11%"
- compound: "O=C(NC1CCCC1)N1CCCCC1c1nc(C2CC2)no1 (stereo unspecified)"
  cytotoxicity at 70.5 h: "-15.1%"
- compound: "O=C(C1=CCCC1)N1C[C@@H]2COC[C@]2(COc2cccnc2)C1"
  cytotoxicity at 70.5 h: "-5.78%"
- compound: "CN(C)C(=O)Cn1cc(C#N)c(=O)c2cc(Br)ccc21"
  cytotoxicity at 70.5 h: "1.29%"
- compound: "Cc1cc(C)n(C2CN(CC(=O)NC(C3CC3)C3CC3)C2)n1"
  cytotoxicity at 70.5 h: "-3.88%"
- compound: "c1ccc(Oc2ccc(CNCC3CNc4ccnn4C3)cn2)cc1 (stereo unspecified)"
  cytotoxicity at 70.5 h: "-9.82%"

---

Experiment: Human HepG2 cell viability assay in 384 well format
Type: toxicity, cell-based
Design: dose 125 nL, time 70.5 hour; concentration not given beside the values
Details: HepG2 cells, read-out: Inhibition
# reported cytotoxicity at 70.5 h; entries follow

- compound: "CC(=O)c1cnc(NCC2OCCc3ccccc32)nc1C (stereo not drawn)"
  cytotoxicity at 70.5 h: "-9.22%"
- compound: "CCc1noc(CC)c1CC(=O)N1CCN(C(C#N)C(C)C)CC1 (stereo not drawn)"
  cytotoxicity at 70.5 h: "-8.63%"
- compound: "CSc1ccc(CNC(=O)C2CC(=O)N(C(C)(C)C)C2)cc1 (stereo not drawn)"
  cytotoxicity at 70.5 h: "-3.39%"
- compound: "CCN1CCN(S(=O)(=O)c2ncn(C)c2Cl)CC1"
  cytotoxicity at 70.5 h: "-8.62%"
- compound: "COCC1c2c(cnn2C)CCN1C(=O)c1cccn1C (stereo not drawn)"
  cytotoxicity at 70.5 h: "-6.36%"
- compound: "O=S(=O)(NC[C@H]1OC[C@@H](NCc2cccs2)[C@@H]1O)c1ccccc1"
  cytotoxicity at 70.5 h: "-10.7%"
- compound: "CC(=O)Nc1nc(COc2nc(C)no2)cs1"
  cytotoxicity at 70.5 h: "24.6%"
- compound: "O=C(NCc1cc[nH]n1)N1CCN(c2ncccn2)CC1"
  cytotoxicity at 70.5 h: "-8.57%"
- compound: "CC(C)CN(CC(O)c1ccc(F)cc1)C(=O)c1cc[nH]n1 (stereo not drawn)"
  cytotoxicity at 70.5 h: "-3.9%"
- compound: "COc1cccc(OCc2cc(C(=O)NC[C@@H]3CCCN3)n[nH]2)c1"
  cytotoxicity at 70.5 h: "0.523%"
- compound: "Cn1ccnc1CNc1c(F)cccc1-n1cccn1"
  cytotoxicity at 70.5 h: "-7.82%"
- compound: "CN(C)CCN(C(=O)Cc1ccc2c(c1)OCCO2)C1CCN(C)CC1"
  cytotoxicity at 70.5 h: "2.11%"
- compound: "CC(O)CNC(=O)NCc1cccnc1OC1CCCC1 (stereo not drawn)"
  cytotoxicity at 70.5 h: "-6.8%"
- compound: "COc1nn(C)cc1C(=O)NCC(=O)NCc1cccnc1"
  cytotoxicity at 70.5 h: "-2.92%"
- compound: "CSc1ccc(C(=O)N2CC(=O)N(Cc3ccccc3)CC(O)C2)cc1 (stereo not drawn)"
  cytotoxicity at 70.5 h: "0.216%"
- compound: "Cc1cc2c(=O)n(CC(=O)N3CCn4cccc4C3C(C)C)cnc2s1 (stereo not drawn)"
  cytotoxicity at 70.5 h: "-6.1%"
- compound: "Cc1ccc(C2CCCN(S(C)(=O)=O)C2)nc1 (stereo not drawn)"
  cytotoxicity at 70.5 h: "-2.08%"
- compound: "COCC1CN(Cc2ccc(F)cc2)Cc2nnn(CC3CC3)c21 (stereo not drawn)"
  cytotoxicity at 70.5 h: "0.526%"
- compound: "Cc1cnn(CC2CCCN2C(=O)Cc2ccc3c(c2)CCO3)c1 (stereo not drawn)"
  cytotoxicity at 70.5 h: "-7.32%"
- compound: "O=C(c1ccc2c(c1)[nH]c(=O)n2[C@H]1CC[C@H](O)CC1)N1CCOCC1"
  cytotoxicity at 70.5 h: "-12.1%"
- compound: "CCNC(=O)C1CCN(Cc2ccccc2OCC(F)(F)F)CC1"
  cytotoxicity at 70.5 h: "-4.11%"
- compound: "Cn1ncc(Cl)c1C(=O)N1CCC(c2nnsc2S(C)(=O)=O)CC1"
  cytotoxicity at 70.5 h: "7.94%"
- compound: "CC1=NN(c2ccc(C(=O)N3CCCC(n4ccnc4)C3)cc2)CC1 (stereo not drawn)"
  cytotoxicity at 70.5 h: "-17.1%"
- compound: "O=C(C1CCCN(CCc2ccc3c(c2)CCO3)C1)N1CCCC1 (stereo not drawn)"
  cytotoxicity at 70.5 h: "44.9%"
- compound: "Cc1nn(C)c(C)c1C1CCCN1C(=O)c1ccc(Cl)o1 (stereo not drawn)"
  cytotoxicity at 70.5 h: "3.22%"
- compound: "Cc1ccccc1N1CCN(C(=O)c2cnc(N(C)C)nc2C)C(C)C1 (stereo not drawn)"
  cytotoxicity at 70.5 h: "-7.48%"
- compound: "COCCN1CCOCC12CCN(c1ccc(C#N)cc1)CC2"
  cytotoxicity at 70.5 h: "-0.11%"
- compound: "CCc1[nH]c2ccc(CNC(=O)c3cnc(N)nc3C)cc2c1C"
  cytotoxicity at 70.5 h: "-3.2%"
- compound: "Cc1cc(C)nc(NCCC(=O)NCCn2ccnc2C)n1"
  cytotoxicity at 70.5 h: "3.01%"
- compound: "Cc1ccc(C)c2c(C)c(C(=O)NCCCn3ccnn3)[nH]c12"
  cytotoxicity at 70.5 h: "43.6%"
- compound: "Cc1cccc(CN2CCC3(CC2)COC(COCC2CC2)C3)n1 (stereo not drawn)"
  cytotoxicity at 70.5 h: "-6.77%"
- compound: "NC(=O)C1(c2cnccn2)CCCN1Cc1ccc(F)c(F)c1 (stereo not drawn)"
  cytotoxicity at 70.5 h: "7.58%"
- compound: "CCOc1ccc(C(=O)CCC(=O)N(C)Cc2cnccn2)cc1C"
  cytotoxicity at 70.5 h: "10.8%"
- compound: "Cc1nc2ccccc2c(=O)n1CCCC(=O)N1CCNC(=O)CC1"
  cytotoxicity at 70.5 h: "2.21%"
- compound: "c1ccc(-c2nc3c(c(NCCn4cccc4)n2)CCNCC3)nc1"
  cytotoxicity at 70.5 h: "-14.1%"
- compound: "CCn1ncc2c1C(COCC1CC1)N(Cc1c(C)noc1C)CC2 (stereo not drawn)"
  cytotoxicity at 70.5 h: "0.596%"
- compound: "O=C(CC1CCCC1)Nc1ccc(-n2cc(Cl)cn2)nc1"
  cytotoxicity at 70.5 h: "-12.3%"
- compound: "Cc1nc(C2CN(Cc3scnc3C)CCO2)cc(N(C)C)n1 (stereo not drawn)"
  cytotoxicity at 70.5 h: "5.46%"
- compound: "Fc1cccc(N2CCCC3(CN(Cc4ccccn4)CCO3)C2)c1 (stereo not drawn)"
  cytotoxicity at 70.5 h: "-1.7%"
- compound: "CCn1ncc2c1C(COCC1CC1)N(C(=O)c1ccncn1)CC2 (stereo not drawn)"
  cytotoxicity at 70.5 h: "-11.3%"
- compound: "Cc1ccc(S(=O)(=O)NC(=O)CCc2ccccc2)cc1N(C)C"
  cytotoxicity at 70.5 h: "-5.27%"
- compound: "NC(=O)CN1CCCN(C(=O)Cc2ccc(F)c(Br)c2)CC1"
  cytotoxicity at 70.5 h: "-8.24%"
- compound: "CS(=O)(=O)Cc1ccc(C(=O)NCc2ccc(Cl)cc2Cl)cc1"
  cytotoxicity at 70.5 h: "-6.11%"
- compound: "c1ccc(OCCCNCCn2cccn2)cc1"
  cytotoxicity at 70.5 h: "-0.836%"
- compound: "CCc1nc(CN2CCCN(C(=O)c3cncnc3C)CC2)cs1"
  cytotoxicity at 70.5 h: "-7.12%"
- compound: "Cc1cc(C2CCCN2C(=O)NCc2cccc(F)c2)on1 (stereo not drawn)"
  cytotoxicity at 70.5 h: "-8.57%"
- compound: "O=C(NC1CCCNC1=O)c1ccc2nc(-c3ccc(F)cc3)cn2c1 (stereo not drawn)"
  cytotoxicity at 70.5 h: "15%"
- compound: "Cc1occc1C(=O)N1CCCC1c1ccc(C(=O)N2CCOCC2)s1 (stereo not drawn)"
  cytotoxicity at 70.5 h: "9.73%"
